Cited source for all entries: patent US9701680B2

- TEST_SYSTEM: Recombinant human FGFR1 (Homo sapiens)
- Sequence (P11362 22-822): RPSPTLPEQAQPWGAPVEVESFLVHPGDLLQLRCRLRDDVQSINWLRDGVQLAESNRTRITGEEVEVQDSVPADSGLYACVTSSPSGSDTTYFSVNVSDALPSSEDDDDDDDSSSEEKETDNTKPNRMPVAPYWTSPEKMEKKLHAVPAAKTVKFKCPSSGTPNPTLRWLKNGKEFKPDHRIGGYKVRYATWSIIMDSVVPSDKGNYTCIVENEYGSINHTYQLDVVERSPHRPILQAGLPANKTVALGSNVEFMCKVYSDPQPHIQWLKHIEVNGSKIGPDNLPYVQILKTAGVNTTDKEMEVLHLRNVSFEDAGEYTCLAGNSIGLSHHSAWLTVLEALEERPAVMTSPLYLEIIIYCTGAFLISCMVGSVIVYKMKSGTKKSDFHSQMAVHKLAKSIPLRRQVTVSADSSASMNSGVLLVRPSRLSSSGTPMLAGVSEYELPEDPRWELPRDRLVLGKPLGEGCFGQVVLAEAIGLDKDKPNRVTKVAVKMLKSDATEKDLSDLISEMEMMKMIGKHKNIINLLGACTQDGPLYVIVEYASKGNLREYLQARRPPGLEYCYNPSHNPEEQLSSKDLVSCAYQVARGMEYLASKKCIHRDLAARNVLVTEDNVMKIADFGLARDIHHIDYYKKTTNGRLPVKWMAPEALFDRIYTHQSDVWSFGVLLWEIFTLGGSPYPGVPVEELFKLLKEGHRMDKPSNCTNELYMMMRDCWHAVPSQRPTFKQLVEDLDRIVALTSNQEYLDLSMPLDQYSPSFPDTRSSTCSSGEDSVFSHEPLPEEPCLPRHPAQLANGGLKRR
- MEASUREMENT_NOTES: Transcreener Kinase Assay of FGFR1
- Assay type: biochemical
- REPORTED_CONDITIONS: read-out: FGFR1 (FP) IC50
PROPERTY_LABEL: IC50 (nM)

INSERT INTO measurements (structure_smiles_string, test_system, measured) VALUES
  ('CNC(=O)c1cc(COc2cnc(Nc3ccnc(N4C[C@@H](C)N[C@@H](C)C4)c3)nc2)c(F)c(OC)c1', 'Recombinant human FGFR1 (Homo sapiens)', 24),
  ('CNC(=O)c1cc(CCc2cnc(Nc3ccc(N4C[C@@H](C)N[C@@H](C)C4)c(OC)c3)nc2)c(F)c(OC)c1', 'Recombinant human FGFR1 (Homo sapiens)', 14),
  ('CNC(=O)c1cc(COc2cnc(Nc3ccc(OC)c(N4CCN(C)CC4)c3)nc2)c(F)c(OC)c1', 'Recombinant human FGFR1 (Homo sapiens)', 18);
